Assay: chemical genetic growth profiling, strain panel (AID 1159580);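 also: tested at 20 µM; growth read once vehicle control cultures reached saturation at 30 °C; 1 = growth at the plate median or of vehicle wells; lower values mean less growth of the strain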
Details: S. cerevisiae deletion strains, growth OD, locus YMR129W, stronger effect = lower value
Among all 5,500 compounds or so, about 2,000 (36%) were called active. Another 18% or so got no clear call; they are omitted. The list shows a part of the results.
Give measured normalized growth for each item. Keep answers brief.
Returns: the value as a bare number; no unit string appended.

Please look up its normalized growth: C#C[C@]1(O)CCC2C3CCC4=CC(=O)CC[C@@H]4C3CC[C@@]21C (some centres undefined)
0.974

Also C[C@]12CCC(=O)C=C1CCC1C2[C@@H](O)C[C@@]2(C)C1CC[C@]2(O)C(=O)CO (some centres undefined) , if possible.
0.993

Let us now turn to CC1(C)CCC2(C(=O)O)CCC3(C)C(=CCC4C5(C)CCC(O)C(C)(C)C5C(O)CC43C)C2C1 (centres undefined)
1.03

Request: CCCCCCCCCCCCCCC(C(=O)O)C(O)(CC(=O)OC)C(=O)O (centres undefined)
1.01

Record: C[C@@H]1CC[C@]2(C(=O)O)CC[C@]3(C)C(=CCC4[C@@]5(C)CC[C@H](O)C(C)(C)C5CC[C@]43C)C2[C@H]1C (some centres undefined)
0.997

Field entry: CC1(C)CC[C@@]2(C(=O)O)C(C1)C1=CCC3[C@@]4(C)CC[C@H](O)C(C)(C)C4CC[C@@]3(C)[C@]1(C)C[C@@H]2O (some centres undefined)
1.02

Next entry: C#C[C@]1(OC(C)=O)CCC2C3CCC4=C/C(=N\O)CCC4C3CC[C@@]21CC (some centres undefined)
0.986

Request: COC(=O)C[C@H]1C(C)(C)C2(O)OC34CC2C(=O)[C@]1(C)C3CC[C@]1(C)C4=CC(=O)O[C@H]1c1ccoc1 (some centres undefined)
0.994

Now the compound C/C=C(/C)C(=O)O[C@@H]1[C@H](OC(C)=O)[C@@]2(CO)C(CC1(C)C)C1=CCC3[C@@]4(C)CC[C@H](O[C@@H]5O[C@H](C(=O)O)[C@@H](O[C@@H]6O[C@H](CO)[C@@H](O)[C@H](O)[C@H]6O)[C@H](O)[C@H]5O[C@@H]5O[C@H](CO)[C@@H](O)[C@H](O)[C@H]5O)[C@](C)(CO)C4CC[C@@]3(C)[C@]1(C)C[C@H]2O (some centres undefined)
0.979

Try the compound COC1=C[C@@H]2[C@@H]3Cc4ccc(OC)c(O)c4[C@]2(CCN3C)CC1=O
1

Input Cc1ccc(N=CN(C)C=Nc2ccc(C)cc2C)c(C)c1
0.97

Now consider CCC(C)C(=O)O[C@H]1[C@H](O)C2C(CN3CC(C)CCC3[C@@]2(C)O)C2C[C@]34O[C@]5(O)C(OC(=O)C(C)(O)CC)CC[C@@]3(C)C5C(OC(C)=O)[C@@H](OC(C)=O)C4[C@@]21O (some centres undefined) and answer again.
1.02

And what about the compound CC(CC(=O)C1OC1(C)C)C1C(=O)CC2(C)C3=CCC4C(C)(C)C(OC5OCC(O)C(O)C5O)CCC45CC35C(O)CC12C (centres undefined) ?
1.02

Do the same for C[C@H]1[C@H](C)CC[C@]2(CO)CC[C@]3(C)C(=CCC4[C@@]5(C)CC[C@H](O)C(C)(C)C5CC[C@]43C)[C@H]12 (some centres undefined) please
0.988
